Values from patent US20040023972A1

// values below are reported inhibition at 10 µM
target: NO synthase (Rattus norvegicus, UniProt P29476); construct: the supernatant was then removed by decantation and frozen in portions at −80° C; from tissue; host or cells: rat cerebellum, 20,000 g supernatant of homogenate; assay: HTS-NOS assay (NOS assay): conversion of radioactive arginine, cation-exchanger filter plate; assay type: biochemical; details: read-out: HTS-NOS assay: % inhibition (10 μM)
# number only, unit % dropped from output

CC(=O)N(c1c(-c2ccncc2)nc2cc(C)cc(C)n12)C(C)(C)CC(C)(C)C
59
CC(=O)N(c1c(-c2cccnc2)nc2cc(C)cc(C)n12)C1CCCCC1
72
Cc1ccn2c(NC(C)(C)CC(C)(C)C)c(-c3cccc(O)c3)nc2c1
60

Reported inhibition at 10 µM ( CC(=O)N(c1c(-c2sccc2Br)nc2ccccn12)C1CCCCC1 ) = 51

Form: molecule = CCCCN(C(C)=O)c1c(-c2cccc(O)c2)nc2ncccn12 ; inhibition at 10 µM = 51

Sample CC(=O)N(c1c(-c2ccccn2)nc2cc(C)ccn12)C1CCCCC1 ; inhibition at 10 µM observed: 64

Form: molecule = COc1cccc(-c2nc3cc(C)ccn3c2Nc2c(C)cccc2C)c1OC ; inhibition at 10 µM = 58

So for CCc1ccn2c(Nc3ccc(F)c(Cl)c3)c(-c3ccc(-c4ccccc4Cl)o3)nc2c1 , the logged inhibition at 10 µM turned out to be 50

inhibition at 10 µM measured on Cc1ccn2c(NC(C)(C)C)c(-c3cccc(O)c3)nc2c1 = 59
